The reported numbers originate from patent US20230125550A1.

Biological target: T1, recombinant human CD123-Fc (human, UniProt P26951 19-305)
T1 construct: not shown: Fc part of CD123-Fc
T1 sequence: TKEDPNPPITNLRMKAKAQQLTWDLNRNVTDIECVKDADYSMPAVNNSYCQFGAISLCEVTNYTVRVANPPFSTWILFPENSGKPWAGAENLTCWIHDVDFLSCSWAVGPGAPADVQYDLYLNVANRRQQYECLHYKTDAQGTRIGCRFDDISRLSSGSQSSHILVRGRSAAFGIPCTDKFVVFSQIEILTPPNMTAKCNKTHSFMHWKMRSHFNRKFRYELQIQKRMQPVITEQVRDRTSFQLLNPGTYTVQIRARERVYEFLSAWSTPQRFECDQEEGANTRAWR
Assay: phage ELISA, captured CD123-Fc
Would you mind labelling by ELISA_avg? At or over 5 ratio A450 target/IgG1-Fc is T, under is F.

[
  {
    "BINDER": "SEQ ID NO: 364 (designed binder, D domain, on phage) MGSWVEFDQRLDAIYERLYALGGSEAELAAFEKEIAAFESELQAYKGKGNPEVEWLRDEAAEIREHLQAYRHN",
    "QUALITATIVE_LABEL": "T"
  },
  {
    "BINDER": "SEQ ID NO: 521 (designed binder, D domain, on phage) MGSWNDFKEELAWIKFDLEALGGSEAELAWFEEDIAMFEQQLQAYKGKGNPEVEALRKEAAAIRDELQAYRHN",
    "QUALITATIVE_LABEL": "F"
  },
  {
    "BINDER": "SEQ ID NO: 455 (designed binder, D domain, on phage) MGSWQTFKDELAHIKWELEALGGSEAELAWFEWDIANFEEELQEYKGKGNPEVEALRKEAAAIRDELQAYRHN",
    "QUALITATIVE_LABEL": "T"
  },
  {
    "BINDER": "SEQ ID NO: 544 (designed binder, D domain, on phage) MGSWEEFDKRLDAITRRLMALGGSEAELAEFESTIAWFEWDLQEYKGKGNPEVEALDWEAYAIDYELGAYRHN",
    "QUALITATIVE_LABEL": "F"
  }
]
